Below is a list of entries, each paired with its recorded pKi value.
# assay target: Protein kinase C alpha type (Homo sapiens)
# measurement notes: Displacement of [3H]PDBu from human recombinant PKCalpha expressed in Escherichia coli […] (DE3)
// scale note: pKi = -log10(conc_M); give the bare number

Examples with their reported pKi follow.
CCCC(CCC)C(=O)OCC1(CO)C/C(=C/c2ccncc2)C(=O)O1 (stereo unspecified): 6.06
COc1ccc(C(=O)OCC2(CO)C/C(=C/c3ccncc3)C(=O)O2)cc1 (stereo unspecified): 4.60
CC(C)CC(CC(=O)OCC1(CO)C/C(=C\c2ccccn2)C(=O)O1)CC(C)C (stereo unspecified): 8.34
CN(C)c1ccc(C(=O)OCC2(CO)C/C(=C\c3ccncc3)C(=O)O2)cc1 (stereo unspecified): 5.95

Problem: Which measured pKi value corresponds to CCCC(CCC)C(=O)OCC1(CO)C/C(=C\c2ccccn2)C(=O)O1 (stereo unspecified) ?
Result: 7.06

Problem: What would you report for CCCC(CCC)C(=O)OCC1(CO)C/C(=C/c2cnc3ccccc3c2)C(=O)O1 (stereo unspecified) ?
Result: 6.75
